# Test system: Escherichia coli strain ATCC25922
# MEASUREMENT_PROTOCOL: Standard microdilution MIC assay, E. coli
# Type: cell-based
Below, each of the compounds is paired with its reported MIC value.

Field: example entries. Status: answers known.
INSERT INTO assay_data (compound, value) VALUES
  ('C[C@H](N)CCCc1cc(Cl)c(F)c(-c2cc3cn(-c4ccc([C@@H]5CCC[C@@H](CCNC(=N)CF)N5C)cc4)c(=O)nc3[nH]2)c1 [Compound 108]', '≤ 16 µg/mL'),
  ('N=C(CF)NCC[C@@H]1CCC[C@@H](c2ccc(-n3cc4cc(-c5cc(CCC[C@@H](N)C6CC6)cc(Cl)c5F)[nH]c4nc3=O)cc2)N1 [Compound 86]', '≤ 16 µg/mL'),
  ('C=CC(CCNC(=N)COC)NCc1ccc(-n2cc3cc(-c4cc(CCC[C@H](C)N)cc(Cl)c4F)[nH]c3nc2=O)cc1 (stereo partly drawn) [Compound 34]', '≤ 16 µg/mL'),
  ('CC(=N)NCC[C@@H]1CCC[C@@H](c2ccc(-n3cc4cc(-c5cc(CCC[C@@H](N)C6CC6)cc(Cl)c5F)[nH]c4nc3=O)cc2)N1CCCF [Compound 334]', '≤ 16 µg/mL'),
  ('CC(=N)NCC[C@@H]1CCC[C@@H](c2c(F)cc(-n3cc4cc(-c5cc(CCC[C@H](C)N)cc(Cl)c5F)[nH]c4nc3=O)cc2N2CCOCC2)N1 [Compound 282]', '≤ 16 µg/mL');

# lookup: MIC of C=CC(CCNC(=N)CSC)NCc1ccc(-n2cc3cc(-c4cc(CCC[C@H](C)N)cc(Cl)c4F)[nH]c3nc2=O)cc1 (stereo partly drawn) [Compound 9]
≤ 16 µg/mL

---

# Test system: Escherichia coli strain ATCC25922
# MEASUREMENT_PROTOCOL: Standard microdilution MIC assay, E. coli
# Type: cell-based
PROPERTY_LABEL: MIC

INSERT INTO measurements (compound, value) VALUES
  ('CSCC(=N)NCC[C@@H]1CCC[C@@H](c2ccc(-n3cc4cc(-c5cc(CCC[C@H](C)N)cc(Cl)c5F)[nH]c4nc3=O)cc2)N1 [Compound 42]', '≤ 16 µg/mL'),
  ('C=C[C@H](N)CCCc1cc(Cl)c(F)c(-c2cc3cn(-c4cc(F)c([C@@H]5CCC[C@@H](CCNC(C)=N)N5)c(OC)c4)c(=O)nc3[nH]2)c1 [Compound 320]', '≤ 16 µg/mL'),
  ('CSc1cc(-n2cc3cc(-c4cc(CCC[C@H](C)N)cc(C(F)(F)F)c4)[nH]c3nc2=O)cc(F)c1[C@@H]1CCC[C@@H](CCNC(C)=N)N1CCCF [Compound 329]', '≤ 16 µg/mL');

# lookup: MIC of N=C(CF)NCC[C@@H]1COC[C@@H](c2ccc(-n3cc4cc(-c5cc(CCC[C@@H](N)C(F)(F)F)cc(Cl)c5F)[nH]c4nc3=O)cc2)N1 [Compound 67]
> 16 µg/mL

# lookup: MIC of CC(=N)NCC[C@@H]1CCC[C@@H](c2ccc(-n3cc4cc(-c5cc(CCC[C@H](C)N)cc(Cl)c5F)[nH]c4nc3=O)cc2Cl)N1 [Compound 175]
≤ 16 µg/mL

# lookup: MIC of COC[C@H](N)CCCc1cc(OC(F)(F)F)c(F)c(-c2cc3cn(-c4ccc([C@@H]5CCC[C@@H](CCNC(C)=N)N5)nc4)c(=O)nc3[nH]2)c1 [Compound 347]
≤ 16 µg/mL

---

# System: Escherichia coli strain ATCC25922
# MEASUREMENT_PROTOCOL: Standard microdilution MIC assay, E. coli
# Assay type: cell-based
# Method: The in vitro activity of the compounds of the present disclosure can be determined. Antimicrobial testing is typically performed to determine the minimum inhibitory concentration (MIC). Minimum inhibitory concentrations (MICs) are determined by the microdilution method in a final volume of 100 μl according to protocols outlined by The Clinical and Laboratory Standards Institute (CLSI). […]
Below, each of the compounds is paired with its reported MIC value.

INSERT INTO results (compound, value) VALUES
  ('C=CC(CCNC(C)=N)NCc1ccc(-n2cc3cc(-c4cc(CCC[C@@H](N)C(F)(F)F)cc(Cl)c4F)[nH]c3nc2=O)cc1 (stereo partly drawn) [Compound 11]', '> 16 µg/mL'),
  ('C=C[C@H](NCCCNC(C)=N)c1ccc(-n2cc3cc(-c4cc(CCCC(C)(C)N)cc(Cl)c4F)[nH]c3nc2=O)cc1 [Compound 267]', '≤ 16 µg/mL'),
  ('C=C[C@@H](CCNC(=N)CCO)NCc1ccc(-n2cc3cc(-c4cc(CCC[C@H](C)N)cc(Cl)c4F)[nH]c3nc2=O)cc1 [Compound 15]', '≤ 16 µg/mL'),
  ('CSc1cc(-n2cc3cc(-c4cc(CCC[C@@H](N)C5CC5)cc(C(F)(F)F)c4F)[nH]c3nc2=O)ccc1[C@@H]1CCC[C@@H](CCNC(C)=N)N1 [Compound 251]', '≤ 16 µg/mL'),
  ('C=C[C@@H](CCNC(=N)CF)NCc1ccc(-n2cc3cc(-c4cc(CCC[C@H](C)N)cc(Cl)c4F)[nH]c3nc2=O)cc1 [Compound 23]', '≤ 16 µg/mL');

Record N=C(CF)NCC[C@@H]1CCC[C@@H](c2ccc(-n3cc4cc(-c5cc(CCC[C@@H](N)C(F)(F)F)cc(Cl)c5F)[nH]c4nc3=O)cc2)N1 [Compound 64] : what is its MIC with Escherichia coli strain ATCC25922?
≤ 16 µg/mL

---

# Test system: Escherichia coli strain ATCC25922
# MEASUREMENT_PROTOCOL: Standard microdilution MIC assay, E. coli
# Type: cell-based
PROPERTY_LABEL: MIC

# lookup: MIC of CC(=N)NCC[C@@H]1CCC[C@@H](c2ccc(-n3cc4cc(-c5cc(CCC[C@@H](N)C6CC6)cc(C(F)(F)F)c5)[nH]c4nc3=O)cc2)N1CCCF [Compound 330]
≤ 16 µg/mL

# lookup: MIC of C=C[C@@H](N)CCCc1cc(Cl)c(F)c(-c2cc3cn(-c4ccc(CN[C@H](C=C)CCNC(=N)CF)cc4)c(=O)nc3[nH]2)c1 [Compound 38]
≤ 16 µg/mL

# lookup: MIC of CC(C)(CN)CCc1cc(Cl)c(F)c(-c2cc3cn(-c4ccc(CNCCCNC(=N)CF)c(F)c4)c(=O)nc3[nH]2)c1 [Compound 74]
≤ 16 µg/mL

---

Below, each of the compounds is paired with its reported MIC value.
# Tested on: Staphylococcus aureus (S. aureus) 11540 strain
# MEASUREMENT_PROTOCOL: Standard microdilution MIC assay, S. aureus
# Type: cell-based

Record COc1cc(-n2cc3cc(-c4cc(CCC[C@@H](N)C5CC5)cc(C(F)(F)F)c4F)[nH]c3nc2=O)ccc1[C@@H]1CCC[C@@H](CCNC(C)=N)N1 : what is its MIC with Staphylococcus aureus (S. aureus) 11540 strain?
≤ 16 µg/mL

Record C=C[C@H](CCNC(=N)CF)NCc1ccc(-n2cc3cc(-c4cc(CCC[C@@H](N)C(F)(F)F)cc(Cl)c4F)[nH]c3nc2=O)cc1 : what is its MIC with Staphylococcus aureus (S. aureus) 11540 strain?
≤ 16 µg/mL

Record COC[C@H](N)CCCc1cc(OC(F)(F)F)c(F)c(-c2cc3cn(-c4ccc([C@@H]5CCC[C@@H](CCNC(C)=N)N5)c(OC)c4)c(=O)nc3[nH]2)c1 : what is its MIC with Staphylococcus aureus (S. aureus) 11540 strain?
≤ 16 µg/mL

---

Below, each of the compounds is paired with its reported MIC value.
# Test system: Staphylococcus aureus (S. aureus) 11540 strain
# MEASUREMENT_PROTOCOL: Standard microdilution MIC assay, S. aureus
# Format: cell-based

INSERT INTO measurements (compound, property_label, value) VALUES
  ('COc1cc(-n2cc3cc(-c4cc(CCC[C@@H](N)C5CC5)cc(OC(F)(F)F)c4F)[nH]c3nc2=O)ccc1[C@@H]1CCC[C@@H](CCNC(C)=N)N1 [Compound 234]', 'MIC', '≤ 16 µg/mL'),
  ('CC(=N)NCC[C@@H]1CCC[C@@H](c2ccc(-n3cc4cc(-c5cc(CCC[C@H](C)NC(C)=N)cc(Cl)c5F)[nH]c4nc3=O)cc2)N1 [Compound 29]', 'MIC', '≤ 16 µg/mL'),
  ('C=C[C@@H](N)CCCc1cc(Cl)c(F)c(-c2cc3cn(-c4ccc([C@H](C)N[C@@H](C=C)CCNC(C)=N)cc4)c(=O)nc3[nH]2)c1 [Compound 149]', 'MIC', '≤ 16 µg/mL'),
  ('C=C[C@@H](CCNC(C)=N)N[C@@H](C)c1ccc(-n2cc3cc(-c4cc(CCC[C@@H](N)CO)cc(Cl)c4F)[nH]c3nc2=O)cc1 [Compound 151]', 'MIC', '≤ 16 µg/mL'),
  ('COC[C@H](N)CCCc1cc(-c2cc3cn(-c4ccc([C@@H]5CCC[C@@H](CCNC(C)=N)N5)c(OC(F)(F)F)c4)c(=O)nc3[nH]2)c(F)c(C(F)(F)F)c1 [Compound 216]', 'MIC', '≤ 16 µg/mL');

# lookup: MIC of CC(=N)NCCCNC1(c2ccc(-n3cc4cc(-c5cc(CCC[C@H](C)N)cc(Cl)c5F)[nH]c4nc3=O)cc2)CC1 [Compound 145]
≤ 16 µg/mL
